Tested on: proteins described in Table 50
Measurement Description: DLS diffusion interaction parameter kD (Example 49)
Assay type: physicochemical
Settings: ustekinumab; excipient stock concentration 100 mM, mixed 1:1 with protein solution; 20 mM His HCl pH 6; 25° C.
Structures can show the parent of a compound that is named as a salt.
Label 1 (yes) when Ustekinumab kD is at or above 20 mL/g; anything below gets 0 (no).

Reference set (4 entries):
> print(dat)
                                   compound    label
1  N=C(N)NC(=O)Cc1c(Cl)cccc1Cl [Guanfacine HCl]  1 (yes)
2  CCN(CC)CCCC(C)Nc1ccnc2cc(Cl)ccc12 (centres unmarked) [Chloroquine Phosphate]   0 (no)
3  CC(=O)CC(=O)OCc1ccccc1 [Benzyl acetonacetate]  1 (yes)
4  C#CCN[C@@H]1CCc2ccccc21 [rasagiline mesylate]  1 (yes)

Given the entry Cl.NCC(O)c1ccc(O)c(O)c1 (racemic) [DL-Norepinephrine HCl] , answer whether its Ustekinumab kD meets or surpasses 20 mL/g. 0 (no)

###

Measurement Description: Caffeine solubility with co-solutes during refrigerated storage (Example 61)
Format: physicochemical
Set-up: key: (PPT)—precipitate observed; (—)—clear solution observed
Settings: caffeine 20 mg/mL, 50 mM co-solute, 25 mM histidine pH 6, stored 2 to 5° C., Day 7
Attribute Measured: Day 7 (visual observation for precipitate)

Solved cases below.
> print(dat)
                                   compound  experimental.result
1               OCc1ccccc1 [Benzyl alcohol]                  PPT
2  O=C([O-])c1ccccc1.[Na+] [Sodium benzoate]                    —
3       CN1CCCC1=O [N-Methyl-2-pyrrolidone]                  PPT
4  N[C@@H](Cc1ccccc1)C(=O)O [Phenylalanine]                  PPT

Input NC(=O)c1cccnc1 [Nicotinamide] , output reported Day 7 (visual observation for precipitate). —

###

# key: entry, value: % change in stability
Tested on: ustekinumab
Measurement Description: Stabilization at low pH, Sypro orange fluorescence (Example 45)
Settings: excipient 5 mg/mL, ustekinumab 1 mg/mL, glycine acidification buffer pH 2.6, Sypro orange fluorescence
Give the value, in units of %, as a plain number.

Molecule	Attribute Measured	Experimental Result
O=C(CO)[C@H](O)[C@H](O)[C@H](O)CO [Psicose]	% change in stability	1.1
Nc1nc(=O)n([C@@H]2CS[C@H](CO)O2)cc1F [Emtricitabine]	% change in stability	2.9
NCCCCNCCCN [Spermidine]	% change in stability	98.1
OC[C@@H](O)[C@@H](O)CO [Erythritol]	% change in stability	1.8
OC[C@H]1O[C@@](CO)(O[C@H]2O[C@H](CO)[C@@H](O)[C@H](O)[C@H]2O)[C@@H](O[C@H]2O[C@H](CO)[C@@H](O)[C@H](O)[C@H]2O)[C@@H]1O [Melzitose]	% change in stability	2.0

Using known records, supply % change in stability for OC[C@@H](O)[C@H](O)[C@@H](O)CO [Xylitol] 0.4

###

Tested on: omalizumab
Measurement Description: DLS viscosity of concentrated omalizumab (Example 53)
Assay type: physicochemical
Settings: concentrated omalizumab 9 parts : 1 part excipient stock (1 M or solubility limit), 20 mM HisHCl pH 6
Attribute Measured: DLS Viscosity, Replicate 1

> print(dat)
      compound  experimental.result
1  CCCCn1ccnc1              16.8 cP

Return DLS Viscosity, Replicate 1 (reported value) for this compound: "CCCCCCn1ccnc1" 13.6 cP

Supply reported DLS Viscosity, Replicate 1 belonging to this compound: "O=S(=O)(O)CCN1CCN(CCO)CC1" 15.9 cP

Identify DLS Viscosity, Replicate 1 associated with the compound "CCCCCCCCOP(=O)([O-])OCC[N+](C)(C)C" 35.6 cP

Look up and report measured DLS Viscosity, Replicate 1 for this entry: OC(CCN1CCCCC1)(c1ccccc1)c1ccccc1 [Pridinol Methanesulfonate] 45.5 cP

###

Measurement Description: Caffeine solubility with co-solutes during refrigerated storage (Example 61)
Assay type: physicochemical
Parameters: key: (PPT)—precipitate observed; (—)—clear solution observed
Settings: caffeine 20 mg/mL, 50 mM co-solute, 25 mM histidine pH 6, stored 2 to 5° C., Day 1
Attribute Measured: Day 1 (visual observation for precipitate)

> print(dat)
                                   compound  experimental.result
1  O=C([O-])c1ccccc1.[Na+] [Sodium benzoate]                    —
2               OCc1ccccc1 [Benzyl alcohol]                    —
3  N[C@@H](Cc1ccccc1)C(=O)O [Phenylalanine]                    —
4       CN1CCCC1=O [N-Methyl-2-pyrrolidone]                  PPT

Then this compound:
Specify measured Day 1 (visual observation for precipitate) for NC(=O)c1cccnc1 [Nicotinamide] . —

###

Tested on: omalizumab
Measurement Description: Viscosity of omalizumab solution by DLS of gold nanoparticles (Example 62)
Settings: Table 62A series; omalizumab approximately 200 mg/mL, excipient 0.1M or lower, His HCl pH 6.0, 25° C.
Mark label 0 for Viscosity normalized to control values under 0.7, and label 1 for everything at or above.

> print(dat)
                                   compound    label
1                             CN1CCN(C)C1=O  label 1
2  O=C(O)c1cccc(O)n1 [6-hydroxypyridine-2-carboxylic acid]  label 1
3      O=S(=O)(O)c1cccc2c(S(=O)(=O)O)cccc12  label 1
4                                     NCCCN  label 0

# next compound below
Viscosity normalized to control >= 0.7 for "O=C(O)/C=C/c1ccc(O)c(O)c1" ? label 1

###

System: omalizumab
Measurement Description: DLS viscosity of concentrated omalizumab (Example 54)
Format: physicochemical
Settings: concentrated omalizumab 9 parts : 1 part excipient stock (1 M or solubility limit), 20 mM HisHCl pH 6
Lab note: compare DLS Viscosity, Replicate 1 against 60 cP. Equal or greater, write Y. Smaller, write N.

Threshold query (DLS Viscosity, Replicate 1 >= 60 cP) on CCc1ncc[nH]1 [Excipient 2-ethylimidazole, 2-ethylimidazole] N

Does the reported DLS Viscosity, Replicate 1 for CCCCCCn1ccnc1 [Excipient 1-hexylimidazole, 1-hexylimidazole] fall at or above the 60 cP mark? N

###

System: ustekinumab
Measurement Description: Urea denaturation, Sypro orange fluorescence (Example 44)
Format: physicochemical
Settings: excipient 5 mg/mL, ustekinumab 1 mg/mL, 6M urea, 20 mM histidine pH 6.0, Sypro orange fluorescence
Attribute Measured: % increased stability (%)
State just the number; it will be interpreted in %.

Example entries and their recorded answers appear below.
> print(dat)
                                   compound     attribute.measured  experimental.result
1                 OC[C@@H](O)C(O)[C@H](O)CO  % increased stability                  2.7
2  O=C(CO)[C@@H](O)[C@H](O)[C@H](O)[C@H](O)CO  % increased stability                  3.7
3                            NCCCNCCCCNCCCN  % increased stability                 16.8
4  Nc1ncnc2c1ncn2[C@@H]1O[C@H](CO)[C@@H](O)[C@H]1O  % increased stability                 53.6
5                  CCNC(=O)CC[C@H](N)C(=O)O  % increased stability                  6.1

Please respond with reported % increased stability (system ustekinumab) for "O[C@H]1[C@H](O)[C@@H](O)CN2CC[C@H](O)[C@H]12" . 7.0

Fill: % increased stability (ustekinumab) for this compound "Nc1ccc(C(=O)O)cc1" 2.7

Supply % increased stability measured with ustekinumab for NC(=NO)c1ccccc1 [benzamide oxime] . 1.4

Give % increased stability; test system ustekinumab; compound "O=C(O)CCCc1ccccc1" 9.0

###

Tested on: omalizumab
Measurement Description: Diffusion interaction parameter kD of omalizumab by DLS (Example 62)
Settings: Table 62B series; omalizumab 10 to 0.6 mg/mL, 0.1M excipient, His HCl pH 6.0, 25° C.
Structures can show the parent of a compound that is named as a salt.
Attribute Measured: kD

Answered examples (3):
Compound	Attribute Measured	Experimental Result
NC(C(=O)O)C(O)c1ccccc1 (racemic) [DL-3-phenylserine]	kD	-30.7 mL/g
NC(=O)c1ccc[n+]([C@@H]2O[C@H](COP(=O)([O-])O)[C@@H](O)[C@H]2O)c1 [nicotinamide mononucleotide]	kD	-31.4 mL/g
NCCS [cysteamine HCl]	kD	-18.5 mL/g

// Input: OCCN(CCO)c1nc(N2CCCCC2)c2nc(N(CCO)CCO)nc(N3CCCCC3)c2n1 [dipyridamole] . Output its kD only. -31.2 mL/g

Entry CNCC(=O)O [sarcosine] needs its kD filled in; supply it. -29.9 mL/g

Identify measured kD associated with NCCCN [1,3-diaminopropane] -11.4 mL/g

// data source = patent US20250186600A1
